Numbers sourced from ChEMBL document CHEMBL2169879.

Molecular target: Glycylpeptide N-tetradecanoyltransferase (Plasmodium falciparum (isolate 3D7), UniProt Q8ILW6)
Sequence (Q8ILW6 whole entry): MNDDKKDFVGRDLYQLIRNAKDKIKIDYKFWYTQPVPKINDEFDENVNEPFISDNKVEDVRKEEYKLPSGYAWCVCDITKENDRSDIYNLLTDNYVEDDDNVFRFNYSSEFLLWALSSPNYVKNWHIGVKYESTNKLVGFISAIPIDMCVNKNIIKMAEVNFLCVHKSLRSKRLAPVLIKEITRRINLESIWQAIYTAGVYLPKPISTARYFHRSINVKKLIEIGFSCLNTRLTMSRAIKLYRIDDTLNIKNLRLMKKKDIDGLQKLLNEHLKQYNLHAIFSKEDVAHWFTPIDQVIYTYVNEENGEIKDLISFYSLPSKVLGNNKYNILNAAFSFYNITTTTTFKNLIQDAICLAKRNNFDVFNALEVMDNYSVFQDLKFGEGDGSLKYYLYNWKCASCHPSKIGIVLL
Test: Inhibition of Plasmodium falciparum N-myristoyltransferase using [3H]-myristoyl-CoA and GLYVSRLFNRLFQKK(Biotin)-NH2 as substrate after 30 mins scintillation proximity assay
Form field: IC50 (one value per entry).
Give a bare numeral; the unit µM is implied.

Cc1c(COCc2ccccc2)oc2cccc(OC3CCNCC3)c12 = 7.1
CCOC(=O)c1oc2cccc(OC3CCNCC3)c2c1C = 16.5
Cc1c(/C=C/c2ccccc2)oc2cccc(OC3CCNCC3)c12 = 26.1
c1ccc(CSc2cc3c(OC4CCNCC4)cccc3o2)cc1 = 38.2

Please find the next compound below.
Recorded IC50 of Cc1c(-c2nc(-c3ccccc3)no2)oc2cccc(OC3CCNCC3)c12 , please.
17.9

====

Catalogue of molecules with associated IC50
Target: Glycylpeptide N-tetradecanoyltransferase (Plasmodium falciparum (isolate 3D7))
Test: Inhibition of Plasmodium falciparum N-myristoyltransferase using [3H]-myristoyl-CoA and GLYVSRLFNRLFQKK(Biotin)-NH2 as substrate after 30 mins scintillation proximity assay
# number only, unit µM dropped from output

# lookup: IC50 of Cc1c(COc2ccccc2)oc2cccc(OC3CCNCC3)c12
6.6

What do you get for Cc1c(C(=O)c2ccccc2)oc2cccc(OC3CCNCC3)c12 ?
22

Cc1c(C(=O)OCc2ccccc2)oc2cccc(OC3CCNCC3)c12 , same question.
0.27

Likewise for Cc1c(C(=O)Nc2ccccc2)oc2cccc(OC3CCNCC3)c12 ?
28.8

Please answer likewise for Cc1c(C(=O)/C=C/c2ccccc2)oc2cccc(OC3CCNCC3)c12
3.5

And then CCOC(=O)c1oc2cccc(OCCCNCc3cccnc3)c2c1C , what is it?
51

====

Target: Glycylpeptide N-tetradecanoyltransferase 1 (Homo sapiens, UniProt P30419, Y296A)
Sequence (P30419 whole entry Y296A): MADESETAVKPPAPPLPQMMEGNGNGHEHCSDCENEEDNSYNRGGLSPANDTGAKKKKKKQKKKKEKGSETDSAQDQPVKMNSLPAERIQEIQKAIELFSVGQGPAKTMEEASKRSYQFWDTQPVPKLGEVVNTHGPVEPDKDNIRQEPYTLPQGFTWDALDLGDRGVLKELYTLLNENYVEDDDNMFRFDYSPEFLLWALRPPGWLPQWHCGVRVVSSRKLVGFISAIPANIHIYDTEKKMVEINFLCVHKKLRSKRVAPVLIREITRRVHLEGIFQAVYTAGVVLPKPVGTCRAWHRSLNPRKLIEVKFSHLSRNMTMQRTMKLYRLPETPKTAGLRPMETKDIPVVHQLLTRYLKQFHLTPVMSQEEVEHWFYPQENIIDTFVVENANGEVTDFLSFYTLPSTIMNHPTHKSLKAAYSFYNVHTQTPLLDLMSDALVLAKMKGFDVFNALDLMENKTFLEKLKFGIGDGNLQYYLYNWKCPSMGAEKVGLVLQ
Experiment: Inhibition of human N-myristoyltransferase Y296A mutant using [3H]-myristoyl-CoA and GLYVSRLFNRLFQKK(Biotin)-NH2 as substrate after 30 mins scintillation proximity assay
measure: IC50 (µM)
State just the number; it will be interpreted in µM.

IC50 lookup needed for COc1cccc(COC(=O)c2oc3cccc(OC4CCNCC4)c3c2C)c1 , thanks.
10

====

Assay: Selectivity index, ratio of IC50 for human N-myristoyltransferase to IC50 for Plasmodium falciparum N-myristoyltransferase
measure: Ratio IC50

Cc1c(C(=O)Oc2ccccc2)oc2cccc(OC3CCNCC3)c12 = > 20
Cc1c(C(=O)c2ccccc2)oc2cccc(OC3CCNCC3)c12 = > 5
Cc1c(C(=O)NCc2cccc3ccccc23)oc2cccc(OC3CCNCC3)c12 = 28
Cc1c(C(=O)CCc2ccccc2)oc2cccc(OC3CCNCC3)c12 = > 20

Endpoint output: Ratio IC50 of Cc1c(COCc2ccccc2)oc2cccc(OC3CCNCC3)c12 . Value?
14

Ok, now Cc1c(C(=O)/C=C/c2ccccc2)oc2cccc(OC3CCNCC3)c12
14

Also need Cc1c(C(=O)OCc2ccccc2)oc2cccc(OC3CCNCC3)c12 , thanks.
> 400

Another compound to look at: Cc1c(COc2ccccc2)oc2cccc(OC3CCNCC3)c12
> 16

What do we get for Cc1c(-c2nc(-c3ccccc3)no2)oc2cccc(OC3CCNCC3)c12 ?
> 12

Same question for Cc1c(C(=O)Nc2ccccc2)oc2cccc(OC3CCNCC3)c12 please.
> 10

// repeat for Cc1c(/C=C/c2ccccc2)oc2cccc(OC3CCNCC3)c12 and report
> 10
